Would you kindly list apparent KD of K4 kissing-loop reporter for each of these sequences?
System: K4 kissing-loop RNA reporter;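 note: bound reporter read as fluorescence of individual clusters on recovered sequencing chips by microscopy, with normalized cluster intensities fitted with a binding model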
Assay: apparent KD of K4 kissing-loop reporter; higher = weaker reporter binding
Settings: Eterna round: R107; input ligand: arginine 13.2 mM
Numbers only, in nM.

Some entries whose results are on file:
CUGUACAUCUCGGCCGCCACUGACAUGAGUGAUGUUCAUGUACAUGAGUGAUGUUCAUGUUCGGCCAGGACCGGGAGGUGUGCAG [KL-SSTryp-B2 #analogue #double KL]	184
CACGAUGAAUUCUCUAGGAGUGAUGUUUUUCGAGGACCGGUACGGCCGCCACUCGGACCAGGAACGUGGGAGCGGCGAAAAGACU [jbmullin]	312
CUGGGUUGACGAAAAGUCAACAAAUGAGAAGGAGCGCACGAAAGUGCAGGUAGGUCGCUCAAUCCAGUGAUGUUGGAUCAUCCAG [#SwitchBubble 12 #K4Late]	601
CCAUCGCUAUUCGAUACCAGUCAGGAGGUCUUUGGCCUCCUAAUGGAGUGAUGUUCCUUAGACCCUUGGCAGCGAAUAGUGAUGG [Theophylline B K4 14]	171
CCUUCCGACACGGCCGCCACUAAUUUCAUCAGAUUGCCCGGAUUUCCAAGAUAGUGAUGUUGUACUAGGACCGGGUGUCAGGUCG [theeternabot_exclusion_KL_Trp_B_16]	680

I have 3 sequences here; please give me apparent KD of K4 kissing-loop reporter for each one.
1. GGUUAAAGCACCCGGAGUGAUGUUCCGGAUACCAGCAAACCAACUUGCCCUUGGCAGCCGUAUAGCGUCCGGUGGGCCGAGCAUA [Raarce]
2. UAUAUGCAGUGAUGUUGCGGCACACUUCCGAAGGAUAUGUCCGGUGACAGAAGGUCGGUCCAUGGGACAUCACGUGUGCUUGAUG [theeternabot_exclusion_KL_FMN_A_15]
3. GAGGGCCCUGUAGGAUAUGAGUCUAGUGAUGUUAGGCGGUCCAUGCGCGUGGCGCGUUAUGCCCUUUUAGAAGGACAGGGCUCUC [#2 Exclusion - FMN B Attempt #21 (HarryS)]

1. 94.3
2. 536
3. 63
